Recorded self-cleavage for the following variants
B1: Osa-1-4 twister ribozyme (parent)
chain: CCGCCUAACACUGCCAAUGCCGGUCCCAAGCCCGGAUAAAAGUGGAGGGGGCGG

# Variants of: B1
# MEASUREMENT_DESCRIPTION: self-cleavage, relative activity (ratio to wild type); higher = more cleavage; co-transcriptional

[
  {
    "VARIANT_CODE": "G42U U24C",
    "self-cleavage": 0.03
  },
  {
    "VARIANT_CODE": "A36G G44C",
    "self-cleavage": 0.97
  },
  {
    "VARIANT_CODE": "A36U G19U",
    "self-cleavage": 0.93
  },
  {
    "VARIANT_CODE": "G22C G23U",
    "self-cleavage": 0.03
  },
  {
    "VARIANT_CODE": "C26G U43C",
    "self-cleavage": 0.07
  },
  {
    "VARIANT_CODE": "C11A C31G",
    "self-cleavage": 0.06
  },
  {
    "VARIANT_CODE": "A40U G34A",
    "self-cleavage": 0.23
  },
  {
    "VARIANT_CODE": "A28U G47C",
    "self-cleavage": 0.06
  },
  {
    "VARIANT_CODE": "C26G G47A",
    "self-cleavage": 0.05
  },
  {
    "VARIANT_CODE": "A28G A8U",
    "self-cleavage": 0.07
  },
  {
    "VARIANT_CODE": "A36C A7U",
    "self-cleavage": 0.05
  },
  {
    "VARIANT_CODE": "C52A G54A",
    "self-cleavage": 0.69
  },
  {
    "VARIANT_CODE": "A29C C14U",
    "self-cleavage": 0.03
  },
  {
    "VARIANT_CODE": "G54C U37G",
    "self-cleavage": 1.03
  },
  {
    "VARIANT_CODE": "A38C G48C",
    "self-cleavage": 0.08
  },
  {
    "VARIANT_CODE": "C11G C27G",
    "self-cleavage": 0.03
  },
  {
    "VARIANT_CODE": "C52A G54U",
    "self-cleavage": 0.89
  },
  {
    "VARIANT_CODE": "G50C U43C",
    "self-cleavage": 0.45
  },
  {
    "VARIANT_CODE": "C27A U18C",
    "self-cleavage": 0.26
  },
  {
    "VARIANT_CODE": "C25A C9A",
    "self-cleavage": 0.05
  },
  {
    "VARIANT_CODE": "C26G U24G",
    "self-cleavage": 0.02
  },
  {
    "VARIANT_CODE": "A28G G30C",
    "self-cleavage": 0.04
  }
]
